# SYSTEM TESTED: UniProtKB P42338
# Sequence (P42338 whole entry, canonical isoform): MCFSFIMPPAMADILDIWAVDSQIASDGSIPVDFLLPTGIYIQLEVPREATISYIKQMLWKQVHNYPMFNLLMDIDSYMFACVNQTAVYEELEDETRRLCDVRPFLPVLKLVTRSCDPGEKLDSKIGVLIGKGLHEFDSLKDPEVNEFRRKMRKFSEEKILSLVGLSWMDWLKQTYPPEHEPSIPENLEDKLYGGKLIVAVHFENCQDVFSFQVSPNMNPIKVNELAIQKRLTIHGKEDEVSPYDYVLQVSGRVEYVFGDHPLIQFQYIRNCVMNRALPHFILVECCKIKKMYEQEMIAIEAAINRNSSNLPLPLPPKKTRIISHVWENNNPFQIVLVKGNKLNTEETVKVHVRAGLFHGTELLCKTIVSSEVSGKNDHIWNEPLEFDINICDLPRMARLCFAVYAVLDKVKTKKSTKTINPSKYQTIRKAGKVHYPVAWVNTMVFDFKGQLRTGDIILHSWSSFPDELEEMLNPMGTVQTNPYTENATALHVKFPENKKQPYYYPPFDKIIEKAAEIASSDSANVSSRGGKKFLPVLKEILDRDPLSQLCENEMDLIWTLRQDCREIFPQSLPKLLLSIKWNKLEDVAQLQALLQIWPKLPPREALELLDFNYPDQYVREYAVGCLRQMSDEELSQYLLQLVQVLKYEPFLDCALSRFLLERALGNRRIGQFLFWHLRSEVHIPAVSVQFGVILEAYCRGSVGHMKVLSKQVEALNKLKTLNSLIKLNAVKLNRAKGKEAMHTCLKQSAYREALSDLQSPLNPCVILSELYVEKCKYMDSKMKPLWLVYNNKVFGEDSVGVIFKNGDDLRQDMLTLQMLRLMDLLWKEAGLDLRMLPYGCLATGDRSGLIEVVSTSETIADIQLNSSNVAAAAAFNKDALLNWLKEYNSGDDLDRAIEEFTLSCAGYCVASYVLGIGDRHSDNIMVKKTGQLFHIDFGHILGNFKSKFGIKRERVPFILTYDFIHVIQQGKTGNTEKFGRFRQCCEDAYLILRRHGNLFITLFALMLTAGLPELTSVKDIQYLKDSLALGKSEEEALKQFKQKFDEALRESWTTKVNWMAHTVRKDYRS
# Sequence (P27986 whole entry partner, canonical isoform): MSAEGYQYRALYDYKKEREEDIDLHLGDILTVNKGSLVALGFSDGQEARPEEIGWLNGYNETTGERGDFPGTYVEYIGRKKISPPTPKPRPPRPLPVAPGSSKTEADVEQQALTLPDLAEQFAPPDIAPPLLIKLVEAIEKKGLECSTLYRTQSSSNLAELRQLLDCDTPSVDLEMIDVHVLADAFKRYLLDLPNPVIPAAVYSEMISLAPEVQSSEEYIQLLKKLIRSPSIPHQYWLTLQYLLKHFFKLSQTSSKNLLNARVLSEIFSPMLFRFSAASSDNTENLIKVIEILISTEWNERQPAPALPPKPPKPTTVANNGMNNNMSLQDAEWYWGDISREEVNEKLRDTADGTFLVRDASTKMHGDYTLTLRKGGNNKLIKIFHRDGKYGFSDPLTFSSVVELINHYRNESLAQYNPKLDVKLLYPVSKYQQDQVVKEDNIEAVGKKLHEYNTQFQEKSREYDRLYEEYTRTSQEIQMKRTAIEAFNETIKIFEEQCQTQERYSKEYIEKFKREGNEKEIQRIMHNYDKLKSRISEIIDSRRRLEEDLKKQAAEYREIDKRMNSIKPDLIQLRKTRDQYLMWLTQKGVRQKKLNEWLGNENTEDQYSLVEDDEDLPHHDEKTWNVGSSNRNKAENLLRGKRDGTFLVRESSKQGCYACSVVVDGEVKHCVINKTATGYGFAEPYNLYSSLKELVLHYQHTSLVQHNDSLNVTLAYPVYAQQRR
# TEST PROTOCOL: TR-FRET enzymatic activity assay against PI3K isoforms
# Format: biochemical
# REPORTED CONDITIONS: PI3Kβ, TR-FRET, 2×Km ATP, 30 minutes at 25° C.
MEASUREMENT TYPE: IC50 (nM)

Examples with their reported IC50 follow.
Cc1nc(N)nc(N[C@H](c2nc3cccc(Cl)c3c(=O)n2CCCN)C2CC2)c1C#N; 1
C[C@H](Nc1ncnc(N)c1Cl)c1nc2cccc(Cl)c2c(=O)n1CCCN; 110

I: CS(=O)(=O)CCCn1c([C@@H](Nc2nc(N)nc(N)c2C#N)C2CC2)nc2cccc(Cl)c2c1=O
II: C[C@H](Nc1ncnc(N)c1C#N)c1nc2cccc(Cl)c2c(=O)n1N(C)CCN [Compound 17]
III: C[C@H](Nc1ncnc(N)c1C#N)c1nc2cccc(Cl)c2c(=O)n1N(C)CCN [Compound 16]
Req: Order by IC50, ascending. Respond with an ordered listing of the labels, as requested.
Resp: I, III, II
(I: 13 nM, III: 42 nM, II: 69 nM)

The origin of these recorded values is patent US11021467B2.
